- assayNotes: in vivo
- conditionContext: rat, ip, rats, intraperitoneal
- Text: Each compound was made up in KH buffer (280 Mosm) buffered to pH 7.4 with 5N NaOH. The final volume for each injection was 1 cc in rats in 0.5 cc in mice.
measurementName: LD50 (mg/kg)
Respond with the bare value in mg/kg.

LD50 for CCOC(C)=N [EA, ethyl acetimidate] ?
900

---

- assayNotes: in vivo
- conditionContext: mouse, ip, mice, intraperitoneal, read-out: LD50 (Lethal dose for 50% of the animals)
- Description: Each compound was made up in KH buffer (280 Mosm) buffered to pH 7.4 with 5N NaOH. The final volume for each injection was 1 cc in rats in 0.5 cc in mice.
measurementName: LD50 (mg/kg)
Respond with the bare value in mg/kg.

LD50 for CCOC(C)=N [EA, ethyl acetimidate] ?
950
